- Test system: E. coli ELZ4251
- PROTOCOL SUMMARY: Antibacterial activity, MIC, multi-drug resistant clinical isolate (Table 3)
- Format: cell-based
- APPLIED CONDITIONS: Escherichia coli
- Excerpt: The antibacterial activity from a microbroth dilution method may be presented as the minimum inhibitory concentration (MIC in μg/mL). The MIC value is the lowest concentration of drug which prevents macroscopically visible growth under test conditions. Antibacterial activity of test compounds against E. coli ELZ4000 and E. coli ELZ4251 multi-drug resistant clinical isolates is shown in Table 3.
ENDPOINT LABEL: MIC

What reported MIC corresponds to CCc1cc(C(=O)O)c(=O)[nH]c1-c1ccc2c(c1)cc(CO)n2C [Cpd 39] on E. coli ELZ4251?
12.5 to 150 µg/mL

What reported MIC corresponds to CCc1c(-c2ccc3c(c2)cc(CN2CCC(C(C)(C)N)C2)n3C)[nH]c(=O)c(C(=O)O)c1O (centres unmarked) [Cpd 185] on E. coli ELZ4251?
12.5 to 150 µg/mL

What reported MIC corresponds to CCCCCCCCNCc1cc2cc(-c3[nH]c(=O)c(C(=O)O)c(O)c3CC)ccc2n1C [Cpd 337] on E. coli ELZ4251?
12.5 to 150 µg/mL

What reported MIC corresponds to CCCCCCCCCNCc1cc2cc(-c3[nH]c(=O)c(C(=O)O)c(O)c3CC)ccc2n1C [Cpd 338] on E. coli ELZ4251?
12.5 to 150 µg/mL

What reported MIC corresponds to CCCCNCc1cc2cc(-c3[nH]c(=O)c(C(=O)O)c(O)c3CC)ccc2n1C [Cpd 333] on E. coli ELZ4251?
12.5 to 150 µg/mL

What reported MIC corresponds to CCc1c(-c2ccc3c(c2)cc(CN2CCC(N)CC2)n3C)[nH]c(=O)c(C(=O)O)c1O [Cpd 252] on E. coli ELZ4251?
12.5 to 150 µg/mL

What reported MIC corresponds to CCc1c(-c2ccc3occc3c2)[nH]c(=O)c(C(=O)O)c1O [Cpd 365] on E. coli ELZ4251?
3.5 to 12.5 µg/mL

What reported MIC corresponds to CCc1c(-c2ccc3c(c2)cc(CN(C)CC2CC2)n3C)[nH]c(=O)c(C(=O)O)c1O.Cl [Cpd 210] on E. coli ELZ4251?
3.5 to 12.5 µg/mL

----------
- Test system: E. coli ELZ4251
- PROTOCOL SUMMARY: Antibacterial activity, MIC, multi-drug resistant clinical isolate (Table 3)
- Format: cell-based
- APPLIED CONDITIONS: Escherichia coli
Give measured MIC for each item. Keep answers brief.

Could you tell me which MIC is on file for CCc1c(-c2ccc3c(c2)oc(=O)n3C)[nH]c(=O)c(C(=O)O)c1O [Cpd 11] ?
12.5 to 150 µg/mL

Could you tell me which MIC is on file for CCc1c(-c2ccc3c(c2)cc(CN2CCCCC2)n3C)[nH]c(=O)c(C(=O)O)c1O [Cpd 192] ?
3.5 to 12.5 µg/mL

Could you tell me which MIC is on file for CCc1c(-c2ccc3c(c2)cc(CN2CC(CO)C2)n3C)[nH]c(=O)c(C(=O)O)c1O [Cpd 271] ?
3.5 to 12.5 µg/mL

Could you tell me which MIC is on file for CCc1c(-c2ccc3c(c2)cc(CN2CCC(NC)CC2)n3C)[nH]c(=O)c(C(=O)O)c1O [Cpd 256] ?
12.5 to 150 µg/mL

Could you tell me which MIC is on file for CCc1c(-c2ccc3c(c2)cc(CN2CCCCC2)n3C)[nH]c(=O)c(C(=O)O)c1N [Cpd 331] ?
12.5 to 150 µg/mL

Could you tell me which MIC is on file for Cn1c(CN2CCC2)cc2cc(-c3[nH]c(=O)c(C(=O)O)c(O)c3C3CC3)ccc21 [Cpd 324] ?
3.5 to 12.5 µg/mL

Could you tell me which MIC is on file for CCc1c(-c2ccc3c(ccn3C)c2)[nH]c(=O)c(C(=O)O)c1O [Cpd 22] ?
3.5 to 12.5 µg/mL

Could you tell me which MIC is on file for CCc1c(-c2ccc3c(c2)cc(CNCC2CCCCN2C)n3C)[nH]c(=O)c(C(=O)O)c1O.Cl.Cl (centres unmarked) [Cpd 233] ?
12.5 to 150 µg/mL

Could you tell me which MIC is on file for CCc1c(-c2ccc3c(c2)cc(CNCC2CCN(C)CC2)n3C)[nH]c(=O)c(C(=O)O)c1O.Cl.Cl [Cpd 234] ?
12.5 to 150 µg/mL

Could you tell me which MIC is on file for CCc1c(-c2ccc3c(c2)cc(CNC2(C)CCC2)n3C)[nH]c(=O)c(C(=O)O)c1O.Cl [Cpd 245] ?
1 to 3.5 µg/mL

Could you tell me which MIC is on file for CC(C)c1cc(C(=O)O)c(=O)[nH]c1-c1ccc2c(ccn2C)c1 [Cpd 33] ?
12.5 to 150 µg/mL

Could you tell me which MIC is on file for CCc1cc(C(=O)O)c(=O)[nH]c1-c1ccc2c(c1)cc1n2CCC1N(C)C (centres unmarked) [Cpd 152] ?
12.5 to 150 µg/mL

Could you tell me which MIC is on file for CCc1cc(C(=O)O)c(=O)[nH]c1-c1ccc2c(c1)CCN2C [Cpd 5] ?
12.5 to 150 µg/mL

Could you tell me which MIC is on file for CCc1c(-c2ccc3c(c2)cc(CN2CCC2)n3C)[nH]c(=O)c(C(=O)O)c1O [Cpd 186] ?
3.5 to 12.5 µg/mL

Could you tell me which MIC is on file for CCc1c(-c2ccc3c(c2)cc(C)n3C)[nH]c(=O)c(C(=O)O)c1O [Cpd 38] ?
12.5 to 150 µg/mL

Could you tell me which MIC is on file for CCc1c(-c2ccc3c(c2)cc(CNCc2ccc(OC)cc2)n3C)[nH]c(=O)c(C(=O)O)c1O [Cpd 291] ?
12.5 to 150 µg/mL

Could you tell me which MIC is on file for CCc1c(-c2ccc3c(c2)cc(CNCC2CC2)n3C)[nH]c(=O)c(C(=O)O)c1O.Cl [Cpd 223] ?
12.5 to 150 µg/mL
